Target: T1, 6His-Fc-FGFR1c (human, UniProt P11362 141-376)
T1 construct: not shown: 6His tag and Fc as named in '6His-Fc-FGFR'
T1 sequence: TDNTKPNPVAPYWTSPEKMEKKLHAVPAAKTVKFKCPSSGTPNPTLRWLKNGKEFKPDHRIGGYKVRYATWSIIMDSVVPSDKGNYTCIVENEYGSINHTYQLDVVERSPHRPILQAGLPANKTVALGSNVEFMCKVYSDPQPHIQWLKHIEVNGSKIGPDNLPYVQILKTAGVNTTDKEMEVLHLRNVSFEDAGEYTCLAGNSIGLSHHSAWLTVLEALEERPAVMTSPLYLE
Assay: competition ELISA, blocks 6His-Fc-FGFR1c binding to coated FGF2
Observed property: pIC50
API: returns pIC50 as number; meaning -log10 of concentration in mol/L.

Reference set (2 entries):
{"Binder": "Ab68 (antibody, human IgG2, kappa, V domains shown, format in the assays not spelled out) VH: EVQLLESGGGVVQPGRSLRLSCAASGFTFSSYAMHWVRQAPGKGLEWVAVISYDGSNKYYADSVKGRFTISRDNSKNTLSLQMNSLRVEDTAIYYCVRGAGLGYPNGPDGFDIWGQGTMVTVSS VL: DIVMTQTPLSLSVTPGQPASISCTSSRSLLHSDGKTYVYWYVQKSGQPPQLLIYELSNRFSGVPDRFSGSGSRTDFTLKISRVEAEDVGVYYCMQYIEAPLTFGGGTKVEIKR", "Value": 8.53}
{"Binder": "Ab60 (antibody, human IgG2, kappa, V domains shown, format in the assays not spelled out) VH: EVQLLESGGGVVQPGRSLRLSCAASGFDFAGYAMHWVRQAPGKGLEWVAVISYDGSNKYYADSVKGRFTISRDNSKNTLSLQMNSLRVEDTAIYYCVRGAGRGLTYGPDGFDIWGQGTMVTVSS VL: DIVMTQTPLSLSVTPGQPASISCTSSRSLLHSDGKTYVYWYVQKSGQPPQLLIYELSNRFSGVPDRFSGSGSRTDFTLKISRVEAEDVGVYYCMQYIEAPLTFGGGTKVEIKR", "Value": 8.42}

Per the records, this binder ( Ab40 (antibody, human IgG2, kappa, V domains shown, format in the assays not spelled out) VH: EVQLLESGGGVVQPGRSLRLSCAASGFTFSSYAMHWVRQAPGKGLEWVAVISYDGSNKYYADSVKGRFTISRDNSKNTLSLQMNSLRVEDTAIYYCVRGAGMGLTYGPDGFDIWGQGTMVTVSS VL: DIVMTQTPLSLSVTPGQPASISCRSSRSLLHSDGKTYVYWYVQKSGQPPQLLIYELSNRFSGVPDRFSGSGSRTDFTLKISRVEAEDVGVYYCMQYIEAPLTFGGGTKVEIKR ) has pIC50 equal to 8.31

Looking up Ab31 (antibody, human IgG2, kappa, V domains shown, format in the assays not spelled out) VH: EVQLLESGGGVVQPGRSLRLSCAASGFTFSSYAMHWVRQAPGKGLEWVAVISYDGSNKYYADSVKGRFTISRDNSKNTLSLQMNSLRVEDTAIYYCVRGAGRGLTYGPDGFDIWGQGTMVTVSS VL: DIVMTQTPLSLSVTPGQPASISCTSSRSLLHSDGKTYVYWYVQKSGQPPQLLIYELSNRFSGVPDRFSGSGSRTDFTLKISRVEAEDVGVYYCMQYVEAPLTFGGGTKVEIKR , I see its pIC50 listed as 8.28

Lab note: Ab88 (antibody, human IgG2, kappa, V domains shown, format in the assays not spelled out) VH: EVQLLESGGGVVQPGRSLRLSCAASGFTFSSYAMHWVRQAPGKGLEWVAVISYDGSNKYYADSVKGRFTISRDNSKNTLSLQMNSLRVEDTAIYYCVRGAGRGLTYGPDGFDIWGQGTMVTVSS VL: DIVMTQTPLSLSVTPGQPASISCKSSRSLLHSDGKTYLYWYVQKSGQPPQLLIYELSNRFSGVPDRFSGSGSRTDFTLKISRVEAEDVGVYYCMQYIEAPLTFGGGTKVEIKR gave pIC50 of 8.10

Lab note: Ab67 (antibody, human IgG2, kappa, V domains shown, format in the assays not spelled out) VH: EVQLLESGGGVVQPGRSLRLSCAASGFTFSSYAMHWVRQAPGKGLEWVAVISYDGSNKYYADSVKGRFTISRDNSKNTLSLQMNSLRVEDTAIYYCVRGAGRGFPYGPDGFDIWGQGTMVTVSS VL: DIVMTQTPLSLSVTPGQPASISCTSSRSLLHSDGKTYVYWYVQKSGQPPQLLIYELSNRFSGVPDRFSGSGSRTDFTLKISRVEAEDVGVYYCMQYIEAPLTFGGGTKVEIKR gave pIC50 of 8.27

Documented pIC50 of Ab57 (antibody, human IgG2, kappa, V domains shown, format in the assays not spelled out) VH: EVQLLESGGGVVQPGRSLRLSCAASGFTFSSYAMHWVRQAPGKGLEWVAVISYDGSNKYYADSVKGRFTISRDNSKNTLSLQMNSLRVEDTAIYYCVRGAGLGFPYGPDGFDIWGQGTMVTVSS VL: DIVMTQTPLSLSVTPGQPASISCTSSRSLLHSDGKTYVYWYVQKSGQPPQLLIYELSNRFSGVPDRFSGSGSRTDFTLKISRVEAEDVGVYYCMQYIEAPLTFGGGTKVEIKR : 8.55

Form field pIC50, entry Ab29 (antibody, human IgG2, kappa, V domains shown, format in the assays not spelled out) VH: EVQLLESGGGVVQPGRSLRLSCAASGFTFSSYAMHWVRQAPGKGLEWVAVISYDGSNKYYADSVKGRFTISRDNSKNTLSLQMNSLRVEDTAIYYCVRGAGLGWPYGPDGFDIWGQGTMVTVSS VL: DIVMTQTPLSLSVTPGQPASISCTSSRSLLHSDGKTYVYWYVQKSGQPPQLLIYELSNRFSGVPDRFSGSGSRTDFTLKISRVEAEDVGVYYCMQYVEAPLTFGGGTKVEIKR : 8.38

The binder identified as Ab83 (antibody, human IgG2, kappa, V domains shown, format in the assays not spelled out) VH: EVQLLESGGGVVQPGRSLRLSCAASGFTFSSYAMHWVRQAPGKGLEWVAVISYDGSNKYYADSVKGRFTISRDNSKNTLSLQMNSLRVEDTAIYYCVRGAGRGFPYGPDGFDIWGQGTMVTVSS VL: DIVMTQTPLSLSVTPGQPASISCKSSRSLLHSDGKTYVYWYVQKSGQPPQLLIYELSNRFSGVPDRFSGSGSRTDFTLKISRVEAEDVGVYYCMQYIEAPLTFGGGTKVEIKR registered its pIC50 at 8.03

Reported pIC50 for Ab15 (antibody, human IgG2, kappa, V domains shown, Format in each assay not spelled out; also called FGF#26) VH: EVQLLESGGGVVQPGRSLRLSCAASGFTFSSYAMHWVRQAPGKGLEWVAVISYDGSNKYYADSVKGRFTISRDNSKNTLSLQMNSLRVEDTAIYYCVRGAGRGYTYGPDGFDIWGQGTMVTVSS VL: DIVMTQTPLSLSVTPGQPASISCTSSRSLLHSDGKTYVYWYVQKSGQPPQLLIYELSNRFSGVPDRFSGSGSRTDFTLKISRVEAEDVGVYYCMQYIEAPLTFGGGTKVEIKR was 8.47
